kon for assorted binders
Target: T1, cynomolgus IL-36α, truncated (cynomolgus macaque (Macaca fascicularis), UniProt Q9UHA7 14-158 (human entry), limits assumed)
T1 construct: Untagged after removal of the His-SUMO tag; also called cynomolgus IL-36 alpha; cyIL-36alpha
T1 chain: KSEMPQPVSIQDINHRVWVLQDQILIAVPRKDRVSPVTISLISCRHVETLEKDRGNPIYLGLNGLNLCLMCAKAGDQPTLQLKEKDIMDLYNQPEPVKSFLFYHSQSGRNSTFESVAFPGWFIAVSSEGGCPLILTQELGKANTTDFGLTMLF
Assay: SPR, Biacore, 1:1 Langmuir fit; heads of c3 and c4 printed swapped
Enter your answer as a number in M⁻¹ s⁻¹; do not include the unit.

{"columns": ["binder", "observed-measurement"],
 "data": [
  ["144D464A LV10re HV10b (antibody, V domains shown, Humanized) VH: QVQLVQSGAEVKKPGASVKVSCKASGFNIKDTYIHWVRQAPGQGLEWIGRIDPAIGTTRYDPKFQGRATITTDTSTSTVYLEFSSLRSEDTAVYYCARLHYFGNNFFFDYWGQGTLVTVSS VL: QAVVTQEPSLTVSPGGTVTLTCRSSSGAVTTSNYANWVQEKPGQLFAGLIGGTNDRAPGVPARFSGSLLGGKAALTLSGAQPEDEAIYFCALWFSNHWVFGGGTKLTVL", 372000]
]}

Q. Please report the recorded kon for 144D464A (antibody, V domains shown, Mouse monoclonal from hybridoma; mouse IgG heavy and lambda light chain; also called mouse antibody 144D464A) VH: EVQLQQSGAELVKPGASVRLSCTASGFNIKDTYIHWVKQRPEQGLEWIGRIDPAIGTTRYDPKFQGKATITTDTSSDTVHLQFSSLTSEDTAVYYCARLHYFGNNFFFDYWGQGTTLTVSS VL: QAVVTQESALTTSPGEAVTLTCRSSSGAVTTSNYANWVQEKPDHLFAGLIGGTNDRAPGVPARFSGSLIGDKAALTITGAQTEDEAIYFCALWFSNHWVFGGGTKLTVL .
A. 465000

Q. Fill blank: measured kon of the binder 144D464A LV7a HV10b (antibody, V domains shown, Humanized; also called humanized 144D464A antibody LV7a HV10b) VH: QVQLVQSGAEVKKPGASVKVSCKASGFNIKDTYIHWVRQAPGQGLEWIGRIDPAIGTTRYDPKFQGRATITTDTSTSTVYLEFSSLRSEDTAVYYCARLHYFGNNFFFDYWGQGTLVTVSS VL: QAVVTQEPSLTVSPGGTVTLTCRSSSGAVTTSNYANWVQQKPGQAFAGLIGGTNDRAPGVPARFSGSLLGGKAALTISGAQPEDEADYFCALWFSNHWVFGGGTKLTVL is ____.
A. 362000
